Give measured growth for each item. Keep answers brief.
Test system: NCI-H23 lung
testDetails: NCI-60 one-dose screen, 48 h (100 = growth as untreated, 0 = no growth, -100 = all killed)
conditions: 10 µM unless noted
This is part of a sample that, as a whole, favours compounds with a hit. Of some 83,000 tested, about 20% had one in any assay.
Numbers only, in %.

Please state, for each entry, its recorded growth.
1. COc1cc2ncnc(Nc3ccc(F)c(Cl)c3)c2cc1OCC(=O)N1CCN(c2ccc(F)cc2)CC1
2. CCOC(=O)c1c(-c2ccccc2)n2c(=O)cc(C)c3c(O)c(O)cc1c32
3. CCCCCCC(=O)Nc1ncc(Cc2ccc(C)cc2)s1
4. Cc1ccc(C)c2c1C(O)(C#Cc1ccccc1)c1ccccc1C2(O)C#Cc1ccccc1 (stereo not given)
5. CCOC(=O)c1c(NC(=O)CSc2n[nH]c3nc4ccccc4n23)sc(CC)c1C
6. CC1=NN(c2ccc(Cl)cc2)CC1(C)N=O (stereo not given)

stdout:
[97, 66.2, 59.3, 92.4, 98.6, 88.4]

Provide growth for all items below, preserving their order.
1. COCCCOc1cc(C[C@@H](C[C@H](N)[C@@H](O)C[C@H](C(=O)NCC(C)(C)C(N)=O)C(C)C)C(C)C)ccc1OC
2. O=c1oc2c(cnc3ccccc32)cc1-c1cccs1
3. COc1ccc(NC(=O)c2sc3nc4c(cc3c2N)CCCC4)cc1
4. O=C(O)c1cn(C2CC2)c2cc(N3CCN(C(=O)N/N=C/c4ccccc4)CC3)c(F)cc2c1=O

stdout:
1: 99.4; 2: 101; 3: 28; 4: 97.1
